system name: STAT6 (Homo sapiens, UniProt P42226)
Construct: stably transfected HaCaT keratinocyte cell line, which expresses NanoLuc luciferase reporter gene under the transcriptional control of the STAT6 responsive promoter; endogenous in cells; host or cells: HaCaT keratinocyte reporter cell line (stably transfected with a NanoLuc reporter)
Sequence (P42226 1-847): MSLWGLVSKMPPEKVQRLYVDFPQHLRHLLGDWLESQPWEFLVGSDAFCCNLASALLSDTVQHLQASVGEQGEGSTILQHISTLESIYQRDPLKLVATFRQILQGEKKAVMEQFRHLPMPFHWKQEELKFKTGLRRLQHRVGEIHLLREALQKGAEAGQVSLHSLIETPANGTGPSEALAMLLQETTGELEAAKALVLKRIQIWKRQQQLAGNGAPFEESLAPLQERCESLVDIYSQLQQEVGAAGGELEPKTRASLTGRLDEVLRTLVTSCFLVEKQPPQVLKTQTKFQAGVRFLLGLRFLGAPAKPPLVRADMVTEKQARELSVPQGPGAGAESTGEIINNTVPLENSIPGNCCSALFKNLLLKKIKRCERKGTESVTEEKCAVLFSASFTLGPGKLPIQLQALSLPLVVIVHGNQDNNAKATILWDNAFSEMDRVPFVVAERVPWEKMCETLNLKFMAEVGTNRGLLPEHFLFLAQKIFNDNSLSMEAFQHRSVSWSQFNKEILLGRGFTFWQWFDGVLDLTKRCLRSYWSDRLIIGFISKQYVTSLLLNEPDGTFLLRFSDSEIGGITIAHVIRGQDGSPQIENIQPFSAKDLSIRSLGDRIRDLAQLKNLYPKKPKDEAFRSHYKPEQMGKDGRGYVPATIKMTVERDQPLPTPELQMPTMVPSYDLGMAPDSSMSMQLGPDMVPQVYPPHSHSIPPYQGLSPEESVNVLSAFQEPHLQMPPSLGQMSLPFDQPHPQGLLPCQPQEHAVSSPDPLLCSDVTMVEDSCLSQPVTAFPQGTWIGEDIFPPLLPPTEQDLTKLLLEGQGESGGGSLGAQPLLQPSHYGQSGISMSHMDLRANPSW
procedure details: STAT6 Reporter Luciferase Assay (IL-13 stimulated HaCaT keratinocyte NanoLuc reporter cells)
Format: cell-based
study conditions: IL-13 stimulated HaCaT STAT6 NanoLuc reporter cells; read-out: Reporter EC50
metric name: EC50 (nM)

Look up EC50: `Cc1cncc(-c2ccc(CNC(=O)c3nn(C(C)C)c4c3CN(c3ccc(C(=O)N(C)C)cc3)C[C@H]4C)cc2)n1`
129

Quick one: EC50 of `CC(C)n1nc(C(=O)NCc2ccc(NC(=O)N3CCNCC3)nc2)c2c1[C@@H](C)CN(c1ccc(C(=O)N(C)C)cc1)C2` ?
4

Record request: EC50 value, item `CC(C)n1nc(C(=O)NCc2ccc(NC(N)=O)cc2)c2c1[C@@H](C)CN(c1ncc(-c3nccn3C)cn1)C2`
3

[I] CC1CN(c2ccc(C(=O)N(C)C)cn2)Cc2c(C(=O)NCc3ccc(NC(=O)N(C)C)cc3)nn(C3COC3)c21 (racemic)
[II] CC(C)n1nc(C(=O)NCc2ccc(NC(=O)N3CCN(C)[C@@H](C)C3)cc2)c2c1[C@@H](C)CN(c1ccc(C(=O)N(C)C)cc1)C2
[III] CC(C)n1nc(C(=O)NCc2ccc(NC(=O)N(C)C)cc2)c2c1C(C(F)(F)F)CN(c1ccc(C(=O)N(C)C)cn1)C2 (single isomer, unassigned) [Example 547]
Which order do these items take when sorted by rising EC50? List them. Answer format: list of labels, ordered as asked.
III, II, I
(III: 0.2 nM, II: 1 nM, I: 3 nM)

---

system name: STAT6 (Homo sapiens)
Construct: stably transfected HaCaT keratinocyte cell line, which expresses NanoLuc luciferase reporter gene under the transcriptional control of the STAT6 responsive promoter; endogenous in cells; host or cells: HaCaT keratinocyte reporter cell line (stably transfected with a NanoLuc reporter)
procedure details: STAT6 Reporter Luciferase Assay (IL-13 stimulated HaCaT keratinocyte NanoLuc reporter cells)
Assay type: cell-based
study conditions: IL-13 stimulated HaCaT STAT6 NanoLuc reporter cells; read-out: Reporter EC50
Source text: Pharmacological measurements of STAT6 transcriptional activity through the IL-13-IL-13 receptor/IL-4 receptor pathway were made with a stably transfected HaCaT keratinocyte cell line, which expresses NanoLuc luciferase reporter gene under the transcriptional control of the STAT6 responsive promoter for IL-13Ra2. The readout of the STAT6 activity utilized Promega Nano-Glo Luciferase assay kit. […]
pEC50: −log10 of the molar value.
metric name: pEC50

Suppose we examine the compound `CC(C)n1nc(C(=O)NCc2ccc(NC(=O)NCc3ccc(NC(=O)N(C)C)cc3)cc2)c2c1[C@@H](C)CN(c1ncc(C(=O)N(C)C)cn1)C2` ; what pEC50 value has been reported?
9.30

[a] CC(C)n1nc(C(=O)NCc2ccc(NC(=O)N(C)C)cc2)c2c1CCN(c1ccc(C(=O)N3CC4(CNC(=O)C4)C3)cn1)C2
[b] Cc1c[nH]c(-c2ccc(CNC(=O)c3nn(C(C)C)c4c3CN(c3ncc(N5CCOC5=O)cn3)C[C@@H]4C)cc2)n1
[c] CC(C)n1nc(C(=O)NCc2ccc(NC(=O)N3CCC4(CC3)CN(C)CCO4)cc2)c2c1[C@@H](C)CN(c1ccc(C(=O)N(C)C)cc1)C2
[d] CC(n1nc(C(=O)NCc2ccc(NC(=O)N(C)C)cc2)c2c1CCN(c1ccc(C(=O)N(C)C)cn1)C2)C(C)(C)C (stereo not drawn)
Rank by pEC50 (largest to smallest). I'd appreciate it if you listed the labels in the requested order.
c, d, b, a
(c: 9.00, d: 8.30, b: 8.10, a: 5.49)

[P] Cc1noc(=O)n1-c1ccc(N2Cc3c(C(=O)NCc4ccc(NC(=O)N5CCN(C)CC5)cc4)nn(C(C)C)c3[C@@H](C)C2)cc1
[Q] CC(C)n1nc(C(=O)NCc2ccc(NC(=O)N(C)C)cc2)c2c1CCN(c1ccc(C(=O)N3Cc4cnc(C5CC5)nc4C3)cn1)C2
Please state the entry with greater pEC50 among P and Q . // caller expects the label of the chosen entry
P

[1] CC(C)n1nc(C(=O)NCc2ccc(NC(=O)N3CCN(C)CC3)cc2)c2c1[C@@H](C)CN(c1ccc(C(=O)N3Cc4cccnc4C3)cn1)C2
[2] CC(C)n1nc(C(=O)NCc2ccc(NC(=O)N3CCN(C)CC3)c(Cl)c2)c2c1[C@@H](C)CN(c1ccc(C(=O)N(C)C)cc1)C2
Please indicate which has the smaller reported pEC50: 1 , or 2 . Record your answer as the label of the chosen record.
2

[a] C[C@H]1CN(c2ccc(C(=O)N(C)C)cn2)Cc2c(C(=O)NCc3ccc(NC(=O)N(C)C)cc3)nn(CC3CC3)c21 (single isomer, unassigned)
[b] Cc1nccc(-c2ccc(CNC(=O)c3nn(C(C)C)c4c3CN(c3ccc(C(=O)N(C)C)cc3)C[C@@H]4C)cc2)n1
[c] CC(C)n1nc(C(=O)NCc2ccc(NC(=O)N(C)C)cc2)c2c1[C@@H](C)CN(c1ccc(C(=O)N(C)C)cn1)[C@@H]2C (single isomer, unassigned)
[d] CC(C)C1CN(c2ccc(C(=O)N(C)C)cn2)Cc2c(C(=O)NCc3ccc(NC(=O)N(C)C)cc3)nn(C)c21 (racemic) [Example 265]
[e] CC(C)n1nc(C(=O)NCc2ccc(NC(=O)N(C)C)cc2)c2c1CCN(c1ccc(C(=O)N3CCC(C)(O)C3)cn1)C2 (racemic)
Write the entries in order, lowest recorded pEC50 first. Answer by naming the labels in the order asked.
e, b, d, a, c
(e: 5.88, b: 6.64, d: 8.30, a: 9.00, c: 10.00)

[I] CC(C)n1nc(C(=O)NCc2ccc(NC(=O)N3CCC(N(C)C)CC3)cc2)c2c1[C@@H](C)CN(c1ccc(C(=O)N(C)C)cn1)C2
[II] CC(C)n1nc(C(=O)NCc2ccc(NC(=O)N3CCC[C@@H](N(C)C)C3)cc2)c2c1[C@@H](C)CN(c1ccc(C(=O)N(C)C)cc1)C2
Endpoint returns whichever of I and II has the numerically higher pEC50. # respond with the chosen item's label
I

[P] CCn1nc(C(=O)NCc2ccc(NC(=O)N(C)C)cc2)c2c1C(C(F)(F)F)CN(c1ncc(C(=O)N(C)C)cn1)C2 (single isomer, unassigned) [Example 464]
[Q] CC(C)n1nc(C(=O)NCc2ccc(NC(=O)N(C)C)cc2)c2c1[C@@H](C)CN(c1ncc(C(=O)N3Cc4cccnc4C3)cn1)C2
[R] CC(C)n1nc(C(=O)Nc2cccc(C(N)=O)c2F)c2c1[C@@H](C)CN(c1ccc(C(=O)N(C)C)cn1)C2
[S] CC(C)n1nc(C(=O)NCc2ccc(NC(=O)N3CCN(C)CC3)c(F)c2)c2c1[C@@H](C)CN(c1ccc(-n3ccccc3=O)cc1)C2
Sort the 4 compounds by pEC50; largest first, smallest last. Answer format: the labels, ordered as requested.
P, Q, S, R
(P: 9.70, Q: 8.70, S: 8.30, R: 6.76)

[1] CC(C)n1nc(C(=O)NCc2ccc(NC(=O)N(C)C)cc2)c2c1C(C(F)(F)F)CN(c1ccc(C(=O)N(C)C)cn1)C2 (racemic) [Example 546]
[2] CC(C)n1nc(C(=O)NCc2ccc(NC(=O)N3CC(F)(F)C3)cc2)c2c1[C@@H](C)CN(c1ccc(C(=O)N(C)C)cn1)C2
Of 1 and 2 , which shows the smaller pEC50 value? The response must carry the label of the picked entry.
2
